Molecular target: T1, β-catenin (UniProt P35222 1-781, limits assumed)
T1 construct: also called beta-catenin
T1 sequence (looked up): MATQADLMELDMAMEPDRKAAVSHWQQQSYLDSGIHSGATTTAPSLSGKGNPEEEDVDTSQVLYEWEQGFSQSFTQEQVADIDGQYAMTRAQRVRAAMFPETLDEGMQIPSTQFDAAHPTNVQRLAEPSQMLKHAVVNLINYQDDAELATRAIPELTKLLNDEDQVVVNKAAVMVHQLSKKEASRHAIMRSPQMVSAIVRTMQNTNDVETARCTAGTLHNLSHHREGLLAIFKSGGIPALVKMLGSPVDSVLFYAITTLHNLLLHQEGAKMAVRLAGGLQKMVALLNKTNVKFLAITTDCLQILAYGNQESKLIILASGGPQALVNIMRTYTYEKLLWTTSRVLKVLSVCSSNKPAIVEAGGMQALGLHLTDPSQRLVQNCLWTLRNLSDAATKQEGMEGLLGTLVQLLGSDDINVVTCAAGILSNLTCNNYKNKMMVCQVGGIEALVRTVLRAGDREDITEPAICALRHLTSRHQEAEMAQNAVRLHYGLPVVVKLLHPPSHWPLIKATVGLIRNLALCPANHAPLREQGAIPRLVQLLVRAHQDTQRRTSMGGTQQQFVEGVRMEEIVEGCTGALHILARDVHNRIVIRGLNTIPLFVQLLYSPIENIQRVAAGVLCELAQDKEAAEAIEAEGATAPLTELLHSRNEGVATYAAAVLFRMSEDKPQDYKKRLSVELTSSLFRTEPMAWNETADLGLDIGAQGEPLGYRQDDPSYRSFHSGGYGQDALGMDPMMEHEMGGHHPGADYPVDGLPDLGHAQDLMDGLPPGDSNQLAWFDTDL
Assay: ALPHA Screen (BCL9/β-catenin);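 also: bead proximity readout with the polypeptide linked to donor beads and β-catenin fixed on acceptor beads, their binding bringing the beads close enough to emit signal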
pIC50: −log10 of the molar value. Bridges are numbered along the chain shown (N, C = ends). Primed or numbered codes have the meaning given here. Where no end group is shown, it is not given here. [ ]: non-standard residue; d: D form. NMeQ′ = N-methylglutamine (N-alpha-methyl, stereo named both D and L in the filing); Phe(4-F) = N[C@@H](Cc1ccc(F)cc1)C(=O)O; 2Nal = N[C@@H](Cc1ccc2ccccc2c1)C(=O)O; NMeQ = CN[C@@H](CCC(N)=O)C(=O)O; Cha = N[C@@H](CC1CCCCC1)C(=O)O; Cba = N[C@@H](CC1CCC1)C(=O)O; S5 = C=CCCC[C@](C)(N)C(=O)O; Nle = CCCC[C@H](N)C(=O)O
Use 6 as the dividing line for pIC50, with the line itself on the 1.0 side and lower values as 0.0.

[
  {
    "binder": "LQTLR[Nle]IQR[Nle]L[2Nal] [SEQ ID NO: 52]",
    "label value": 0.0
  },
  {
    "binder": "Ac-AQTAR[S5]IQR[S5]L[2Nal]-NH2 (staple 6-10; SMILES CC[C@H](C)[C@@H]1NC(=O)[C@@](C)(NC(=O)[C@H](CCCNC(=N)N)NC(=O)[C@H](C)NC(=O)[C@@H](NC(=O)[C@H](CCC(N)=O)NC(=O)[C@H](C)NC(C)=O)[C@@H](C)O)CCCC=CCCC[C@@](C)(C(=O)N[C@@H](CC(C)C)C(=O)N[C@@H](Cc2ccc3ccccc3c2)C(N)=O)NC(=O)[C@H](CCCNC(=N)N)NC(=O)[C@H](CCC(N)=O)NC1=O) [SEQ ID NO: 21]",
    "label value": 0.0
  },
  {
    "binder": "Ac-LQTLR[S5]IQR[S5][Cba][2Nal]-NH2 (staple 6-10) [SEQ ID NO: 107]",
    "label value": 1.0
  },
  {
    "binder": "{3,5‑dihydroxybenzoic acid}-L[NMeQ]TLR[S5]IQR[S5][Cba][2Nal]-NH2 (staple 6-10; also: N-methyl-Gln at 2: filing says both D and L) [SEQ ID NO: 140]",
    "label value": 0.0
  },
  {
    "binder": "Ac-HRQRS[Cha][NMeQ′]TLR[S5]IQR[S5][Phe(4-F)][2Nal]-NH2 (staple 11-15; not fully specified; printed as HRQRS(Cha)(N-methylQ)TLRXaa3IQRXaa6(4-F-Ph)(2-Nal)) [SEQ ID NO: 200]",
    "label value": 1.0
  },
  {
    "binder": "RSLQTLR[Nle]IQR[Nle]L[2Nal] [SEQ ID NO: 58]",
    "label value": 0.0
  }
]
